# Tested on: BT-549
# test.description: Growth inhibition of human BT-549 cells assessed as cell viability measured after 4 days by WST8 assay
# Format: functional, cell-based
# test.settings: BT-549, 96 h
experimental.readout: IC50

CC(C)c1cnn2c(NCc3ccccc3-n3ccnc3)nc(OC3CCN(CCOCCNC(=O)COc4cccc5c4C(=O)N(C4CCC(=O)NC4=O)C5=O)CC3)nc12 (stereo not drawn): > 20 µM
CC(C)c1cnn2c(NCc3ccccc3N(C)C)nc(OC3CCN(CCOCCOCCOCCNC(=O)COc4cccc5c4C(=O)N(C4CCC(=O)NC4=O)C5=O)CC3)nc12 (stereo not drawn): > 20 µM

Proceed to the following item.
Challenge: Given CC(C)c1cnn2c(NCc3ccccc3N(C)C)nc(OC3CCN(CCOCCNC(=O)COc4cccc5c4C(=O)N(C4CCC(=O)NC4=O)C5=O)CC3)nc12 (stereo not drawn) , state its recorded IC50.
Response given: > 20 µM
